Hey, just so you know, these numbers are from patent US11337970B2.

# STUDY_TARGET: human IDO1 (Homo sapiens, UniProt P14902)
# Construct: expressed in transfected cells
# Sequence (P14902 whole entry): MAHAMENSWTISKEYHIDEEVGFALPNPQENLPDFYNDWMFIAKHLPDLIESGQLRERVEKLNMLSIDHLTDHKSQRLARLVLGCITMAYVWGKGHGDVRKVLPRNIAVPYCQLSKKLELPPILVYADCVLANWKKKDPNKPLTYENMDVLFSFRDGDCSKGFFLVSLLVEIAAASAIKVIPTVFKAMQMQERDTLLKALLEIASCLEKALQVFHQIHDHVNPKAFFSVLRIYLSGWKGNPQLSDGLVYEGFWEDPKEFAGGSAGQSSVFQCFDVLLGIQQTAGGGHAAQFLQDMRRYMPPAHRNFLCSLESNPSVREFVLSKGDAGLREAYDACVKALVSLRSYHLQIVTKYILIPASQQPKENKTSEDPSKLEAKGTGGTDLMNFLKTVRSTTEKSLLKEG
# TEST_DESCRIPTION: IDO inhibition assay in HEK293 cells stably expressing human IDO1 (kynurenine, Ehrlich reagent)
# Assay type: cell-based
# CONDITION_INFO: 20 hours incubation, absorbance at 490 nm, read-out: IDO1 HEK Human IC50
# label = 1 (yes) if IC50 < 50 nM else 0 (no)

COMPOUND | GROUP
COc1ccc2nc(N[C@H](C)[C@H]3CC[C@@H](c4ccnc5ccc(F)cc54)CC3)[nH]c2c1 [Example 9] | 0 (no)
C[C@@H](c1nc2ccccc2[nH]1)[C@H]1CC[C@@H](c2ccnc3ccc(F)cc32)CC1 [Example 1] | 1 (yes)
CC(c1nc2ccc(Cl)cc2[nH]1)C1CCC(c2ccnc3ccccc23)CC1 (single isomer, unassigned) [Example 16-2] | 1 (yes)
C=CC[C@@H](c1nc2ccc(Cl)cc2[nH]1)[C@H]1CC[C@@H](c2ccnc3ccc(F)cc32)CC1 [Example 32] | 1 (yes)
C[C@@H](c1nc2ccc(F)cc2[nH]1)[C@H]1CC[C@@H](c2ccnc3ccc(F)cc32)CC1 [Example 3] | 1 (yes)
CC(c1nc2ccc(Cl)cc2[nH]1)C1CCC(c2ccnc3ccccc23)CC1 (single isomer, unassigned) [Example 16-1] | 0 (no)
C[C@@H](Nc1nc2ccccc2[nH]1)[C@H]1CC[C@@H](c2ccnc3ccc(F)cc32)CC1 [Example 12] | 0 (no)
CCC(c1nc2ccc(Cl)cc2[nH]1)[C@H]1CC[C@H](Oc2ccnc3ccccc23)CC1 (single isomer, unassigned) [Example 13-1] | 1 (yes)
CC[C@H](c1nc2ccc(Cl)cc2[nH]1)[C@H]1CC[C@@H](c2ccnc3ccc(F)cc32)CC1 (single isomer, unassigned) [Example 15-3] | 1 (yes)
C[C@@H](c1nc2ccc(Cl)cc2[nH]1)[C@H]1CC[C@@H](c2ccnc3ccc(F)cc32)CC1 [Example 2] | 1 (yes)
C[C@@H](Nc1nc2ccc(Cl)cc2s1)[C@H]1CC[C@@H](c2ccnc3ccc(F)cc32)CC1 [Example 8] | 0 (no)
CCC(c1nc2ccc(Cl)cc2[nH]1)[C@H]1CC[C@@H](Oc2ccnc3ccccc23)CC1 (some centres unmarked) [Example 14] | 0 (no)
C[C@@H](c1nc2ncc(Cl)cc2[nH]1)[C@H]1CC[C@@H](c2ccnc3ccc(F)cc32)CC1 [Example 6] | 1 (yes)
CC[C@H](c1nc2ccc(Cl)cc2[nH]1)[C@H]1CC[C@@H](c2ccnc3ccc(F)cc32)CC1 (single isomer, unassigned) [Example 15-1] | 1 (yes)
